Recorded Activity values for a group of compounds are listed next.
System: Mus musculus
Assay: Antihyperglycemic activity in diabetic C57BL/KsJ db/db mouse model assessed as reduction in plasma insulin level in hyperglycemia at 25 mg/kg, po qd for 10 days
Format: functional
Design: scale not given: the % may be the effect or the level left
State the value with its unit after it.

[
  {
    "COMPOUND": "CC(C)NCC(O)COc1ccc2c(=O)cc(-c3cc(O)cc(O)c3)oc2c1 (racemic)",
    "PARAMETER MEASURED": "Activity",
    "TEST RESULT": "22.3%"
  },
  {
    "COMPOUND": "CC(C)NC[C@@H](O)COc1ccc2c(=O)cc(-c3cc(O)cc(O)c3)oc2c1",
    "PARAMETER MEASURED": "Activity",
    "TEST RESULT": "9.1%"
  }
]

input: Fill in: Activity on Mus musculus, entry CC(C)(C)NC[C@H](O)COc1ccc2c(=O)cc(-c3cc(OCc4ccccc4)cc(OCc4ccccc4)c3)oc2c1
output: 53.4%
